assay_info: MONACRA O-demethylation by monkey liver microsomes, FA-AAA formaldehyde assay
Type: in vitro ADME, cynomolgus monkey (Macaca fascicularis)
recorded_conditions: cynomolgus monkey, liver microsomes, MLM; FA assay; 20-min incubation at 30°C; read-out: KM, second of two Michaelis–Menten components
measure: Km at 20 min

Given the compound COc1ccc2cc(C=CC(=O)O)ccc2c1 , what is its reported Km at 20 min?
260 µM

----------
system_under_test: pooled human liver microsome (HLM) preparations (Homo sapiens)
assay_info: Inhibition of MONACRA demethylation in pooled HLM preparations
Type: biochemical
recorded_conditions: HLM sample CDN; 150 µM MONACRA; unit not given (µM)
measure: IC50

Given the compound CC(/C=C1\SC(=S)N(CC(=O)O)C1=O)=C\c1ccccc1 , what is its reported IC50?
1.48 µM

----------
system_under_test: pooled human liver microsome (HLM) preparations (Homo sapiens, UniProt Q02928)
Sequence (Q02928 5-519): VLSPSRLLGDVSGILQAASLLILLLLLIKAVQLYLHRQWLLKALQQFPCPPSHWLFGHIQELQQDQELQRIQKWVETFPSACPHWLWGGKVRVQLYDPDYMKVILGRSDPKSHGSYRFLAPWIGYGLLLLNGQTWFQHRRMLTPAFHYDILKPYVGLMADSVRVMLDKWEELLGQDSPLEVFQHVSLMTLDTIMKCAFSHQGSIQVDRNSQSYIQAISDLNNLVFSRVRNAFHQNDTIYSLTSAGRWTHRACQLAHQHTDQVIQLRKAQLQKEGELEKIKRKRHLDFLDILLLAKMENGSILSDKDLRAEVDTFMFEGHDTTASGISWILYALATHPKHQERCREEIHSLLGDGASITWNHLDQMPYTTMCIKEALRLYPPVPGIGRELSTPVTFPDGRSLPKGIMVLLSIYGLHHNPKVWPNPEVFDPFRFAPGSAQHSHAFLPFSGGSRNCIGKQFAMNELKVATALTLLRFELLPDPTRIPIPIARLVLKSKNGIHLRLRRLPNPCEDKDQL
assay_info: Inhibition of MONACRA demethylation in pooled HLM preparations
Type: biochemical
recorded_conditions: HLM sample DNJ; 150 µM MONACRA; unit not given (µM)
measure: IC50
The answer consists of two parts: a number and, after it, its unit.

Given the compound CC(/C=C1\SC(=S)N(CC(=O)O)C1=O)=C\c1ccccc1 , what is its reported IC50?
2.02 µM

----------
system_under_test: CYP4A11 (Homo sapiens, UniProt Q02928)
assay_info: Inhibition of MONACRA demethylation by recombinant CYP4A11
recorded_conditions: recombinant CYP4A11 Supersomes; 150 µM MONACRA
measure: IC50 (nM)
// note: answer is a bare numeric in nM

Given the compound CC(/C=C1\SC(=S)N(CC(=O)O)C1=O)=C\c1ccccc1 , what is its reported IC50?
1300

----------
system_under_test: pooled human liver microsome (HLM) preparations (Homo sapiens, UniProt Q02928)
assay_info: Inhibition of MONACRA demethylation in pooled HLM preparations
Type: biochemical
recorded_conditions: HLM sample EGW; 150 µM MONACRA; unit not given (µM)
measure: IC50 (µM)
// note: answer is a bare numeric in µM

Given the compound CC(/C=C1\SC(=S)N(CC(=O)O)C1=O)=C\c1ccccc1 , what is its reported IC50?
2.15

----------
system_under_test: pooled human liver microsome (HLM) preparations (Homo sapiens)
assay_info: Inhibition of MONACRA demethylation in pooled HLM preparations
Type: biochemical
recorded_conditions: HLM sample X096; 150 µM MONACRA; unit not given (µM)
measure: IC50 (µM)
// note: answer is a bare numeric in µM

Given the molecule CC(/C=C1\SC(=S)N(CC(=O)O)C1=O)=C\c1ccccc1 , what is its reported IC50?
5.36
